Attribute: SPOT peptide array binding signal intensity
target: SpPex13; assay: SPOT peptide array binding signal intensity (averaged, normalized) (arbitrary units (background-subtracted, floor 0; scale differs between SH3 domains)); higher = stronger binding of the SH3 domain to the peptide
Measured endpoint: SPOT peptide array binding signal intensity

| Binder | Relation sign | Reported result |
| --- | --- | --- |
| TSFKGRPKPPKTLKH | ≤ | 0 |
| PPIPNAPLSPAPAVP | ≤ | 0 |
| NILKRRPLKLEAPSK | ≤ | 0 |
| STPQTMRQAPKRPDA | = | 51 |
| KTITLEVESSDTIDN | ≤ | 0 |
| PELAPKREAPKPPAN | ≤ | 0 |
| SRSKPLPLTPNSKYN | = | 5 |
| NSVPIMPTLPPRPYI | = | 25 |
| RNNRPVPPPPPMRTT | = | 19.5 |
| ALKQKKIPPPFKPHL | ≤ | 0 |
| RRRDFGAPANKRPRR | = | 15 |
| DFTLPPPPPPPGLDE | ≤ | 0 |
| RRTRLRPPTPLSQLL | = | 12.8 |
| QLLNPNRRAPRRPLS | = | 20 |
| KNPRRQLQIPRQQPS | = | 5 |
| RLPAPPPPPRRGPAP | ≤ | 0 |
| MAMRPIPPLPTESEY | = | 72 |
| FTLPPPPPPPGLDEL | ≤ | 0 |
| NFLRLLIGLPSQNEL | = | 52 |
| LRWRHKFFLPAIAAI | = | 6.25 |
| LKHGWKPLRPIKLIS | = | 8 |
| KTRLRPAFIQQLWSS | = | 17 |
| KKAPPPVVKPKPRNF | = | 3.5 |
| DRIRMFIRFPKFLLE | = | 38 |
| AAAPKHAPPPVPNET | ≤ | 0 |
| KRRTSLFPWLHKPGI | = | 6.5 |
| KMSRSPPRPPSLKII | = | 17 |
| LASNSPPVYPKRIRH | ≤ | 0 |
| PHNPSPFFPPPDFND | ≤ | 0 |
| VFQFQMPTTPISTKM | = | 124 |

Data provenance is the supplement of paper PMC4466140.
